Would you mind telling me the reported hCCL1 (100 nM) residual response in %, Protocol #3, mAb 0.5 µg/mL (3.33 nM) of each entry?
# assayed_system: human CCR8 (human, UniProt P51685 1-355)
# method_description: cell-based or functional assay
One number for each entry, in %.

Take a look at these entries with their results.
humanized anti-CCR8 mAb 2-14 (antibody, human IgG1, kappa, V domains shown, Humanized, human IgG1 / kappa) VH: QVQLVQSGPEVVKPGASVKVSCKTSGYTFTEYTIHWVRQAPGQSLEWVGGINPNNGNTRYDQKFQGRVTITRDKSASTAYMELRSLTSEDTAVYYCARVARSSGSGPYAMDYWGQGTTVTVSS VL: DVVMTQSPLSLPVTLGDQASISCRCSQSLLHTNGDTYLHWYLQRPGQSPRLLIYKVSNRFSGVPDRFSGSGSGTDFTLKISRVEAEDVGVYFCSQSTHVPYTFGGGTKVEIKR | 60
anti-CCR8 mAb 2-9 (antibody, V domains shown) VH: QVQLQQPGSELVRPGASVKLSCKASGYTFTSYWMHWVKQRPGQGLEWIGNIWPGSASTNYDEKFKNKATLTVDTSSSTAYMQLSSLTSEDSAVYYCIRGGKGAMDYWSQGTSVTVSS VL: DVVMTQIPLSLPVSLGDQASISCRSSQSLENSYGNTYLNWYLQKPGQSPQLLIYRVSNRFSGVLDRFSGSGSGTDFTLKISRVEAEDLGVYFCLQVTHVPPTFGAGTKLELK | 90
anti-CCR8 mAb 2-11 (antibody, V domains shown) VH: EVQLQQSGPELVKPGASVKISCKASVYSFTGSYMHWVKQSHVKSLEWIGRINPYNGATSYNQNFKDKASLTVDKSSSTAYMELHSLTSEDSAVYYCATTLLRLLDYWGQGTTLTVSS VL: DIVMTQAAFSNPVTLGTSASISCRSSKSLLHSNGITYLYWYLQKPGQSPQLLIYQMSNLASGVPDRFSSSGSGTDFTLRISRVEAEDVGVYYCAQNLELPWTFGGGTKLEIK | 81
anti-CCR8 mAb 2-1 (antibody, V domains shown) VH: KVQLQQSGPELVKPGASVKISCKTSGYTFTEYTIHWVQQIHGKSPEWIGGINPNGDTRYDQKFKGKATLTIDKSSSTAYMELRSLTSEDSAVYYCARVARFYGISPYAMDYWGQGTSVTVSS VL: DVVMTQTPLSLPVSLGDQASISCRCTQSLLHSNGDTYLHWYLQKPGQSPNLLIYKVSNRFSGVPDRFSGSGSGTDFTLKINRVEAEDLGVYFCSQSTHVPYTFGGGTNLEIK | 81

For every item in the list below, what is its measured hCCL1 (100 nM) residual response in %, Protocol #3, mAb 0.5 µg/mL (3.33 nM)?
1. anti-CCR8 mAb 2-3 (antibody, V domains shown) VH: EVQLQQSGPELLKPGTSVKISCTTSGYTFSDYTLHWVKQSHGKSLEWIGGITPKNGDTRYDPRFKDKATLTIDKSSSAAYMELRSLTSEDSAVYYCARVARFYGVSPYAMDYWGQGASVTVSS VL: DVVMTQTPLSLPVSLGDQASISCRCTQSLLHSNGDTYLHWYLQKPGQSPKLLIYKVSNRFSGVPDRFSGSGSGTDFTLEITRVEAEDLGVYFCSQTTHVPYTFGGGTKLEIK
2. anti-CCR8 mAb 2-4 (antibody, V domains shown) VH: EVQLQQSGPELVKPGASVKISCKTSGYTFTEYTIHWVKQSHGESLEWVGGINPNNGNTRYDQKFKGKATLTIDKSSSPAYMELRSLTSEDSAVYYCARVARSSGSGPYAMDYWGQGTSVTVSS VL: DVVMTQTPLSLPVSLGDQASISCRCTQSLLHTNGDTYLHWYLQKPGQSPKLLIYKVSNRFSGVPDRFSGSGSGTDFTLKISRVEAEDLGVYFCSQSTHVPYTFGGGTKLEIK

Result ::
1. 64
2. 57

Origin of the recorded values: patent US20260167731A1
